Measured inhibition in vivo at 29 µmol/kg by item
- Tested on: Rattus norvegicus
- Experiment description: Antiinflammatory activity in albino rat assessed as inhibition of carrageenan-induced paw edema at 0.029 mmol/kg, po after 4 hrs relative to control
- Format: functional
Measured attribute: inhibition in vivo at 29 µmol/kg (%)

Molecule	Observed measurement
CCN1C(=S)N2CCCC2c2c1ncn(CC)c2=N (centres undefined)	9.91
CCCNc1nc(-c2ccccc2)nc2c1C1CCCN1C(=O)N2c1ccccc1 (centres undefined)	36.6
CCCn1cnc2c(c1=N)C1CCCN1C(=S)N2CC (centres undefined)	6.82
O=C1NC(c2ccccc2[N+](=O)[O-])NC2=C1C1CCCN1C(=O)N2c1ccccc1 (centres undefined)	3.73
